Test system: 931267-113-T-J1-PDC KRAS spheroid with HUVEC/MSC, viability
procedure.details: Anticancer human tumor 931267-113-T-J1-PDC patient-derived colon adenocarcinoma cell line growth inhibition [KRAS2]; active means viability on the fitted dose curve at most 10% of control; inactive means the rest
recorded.conditions: second compound 3.16 µM; first compound 0.0316 µM
In this exercise, the only acceptable responses are active, inactive

{"columns": ["molecule", "target.or.test.system", "assigned.class"],
 "data": [
  ["CC(C)n1nc(-c2ccc3oc(N)nc3c2)c2c(N)ncnc21 + C=CC(=O)N1CCN(c2nc(OCC3CCCN3C)nc3c2CCN(c2cccc4cccc(C)c24)C3)CC1CC#N", "931267-113-T-J1-PDC KRAS spheroid with HUVEC/MSC, viability", "active"],
  ["CC(C)NCC(C(=O)N1CCN(c2ncnc3c2C(C)CC3O)CC1)c1ccc(Cl)cc1 (stereo not drawn) + C=CC(=O)N1CCN(c2nc(OCC3CCCN3C)nc3c2CCN(c2cccc4cccc(C)c24)C3)CC1CC#N", "931267-113-T-J1-PDC KRAS spheroid with HUVEC/MSC, viability", "active"]
]}

Field: next molecule
Identify the outcome logged in this assay for the molecule shown: CC1OCC2(CCN(c3cnc(Sc4ccnc(N)c4Cl)c(N)n3)CC2)C1N (stereo not drawn) + COc1cc2nc(C)nc(NC(C)c3cc(N)cc(C(F)(F)F)c3)c2cc1OC1CCOC1 inactive

---

Tested on: 931267-113-T-J1-PDC KRAS spheroid with HUVEC/MSC, viability
procedure.details: Anticancer human tumor 931267-113-T-J1-PDC cell line growth inhibition [KRAS2];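 further: compound exposure lasted 7 days before the readout; 100% = DMSO vehicle control viability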
recorded.conditions: second compound 0.1 µM; first compound 10 µM; hits give low values
Reported values of viability, T/C for individual entries
Could you give me the number in %? Just the number is fine.

{"columns": ["molecule", "unit.abbreviation", "viability, T/C"],
 "data": [
  ["CC(C)NCC(C(=O)N1CCN(c2ncnc3c2C(C)CC3O)CC1)c1ccc(Cl)cc1 (stereo unspecified) + C=CC(=O)N1CCN(c2nc(=O)n(-c3c(C)ccnc3C(C)C)c3nc(-c4c(O)cccc4F)c(F)cc23)C(C)C1", "%", 38.5]
]}

// viability, T/C lookup, key: CCNC(=O)CC1N=C(c2ccc(Cl)cc2)c2cc(OC)ccc2-n2c(C)nnc21 (stereo unspecified) + COc1cc2nc(C)nc(NC(C)c3cc(N)cc(C(F)(F)F)c3)c2cc1OC1CCOC1 31.9

Now this one: COc1cc2nccc(Oc3ccc(NC(=O)C4(C(=O)Nc5ccc(F)cc5)CC4)cc3)c2cc1OC + COc1cc2nc(C)nc(NC(C)c3cc(N)cc(C(F)(F)F)c3)c2cc1OC1CCOC1 44.8

Now this one: CC(C)NCC(C(=O)N1CCN(c2ncnc3c2C(C)CC3O)CC1)c1ccc(Cl)cc1 (stereo unspecified) + C=CC(=O)N1CCN(c2nc(OCC3CCCN3C)nc3c2CCN(c2cccc4cccc(C)c24)C3)CC1CC#N 41.8

Now this one: Cn1nccc1Nc1nccc(-c2cc3c(s2)C(C)(C)N(CCN2CCOCC2)C3=O)n1 + COc1cc2nc(C)nc(NC(C)c3cc(N)cc(C(F)(F)F)c3)c2cc1OC1CCOC1 3.49

Now this one: O=C(c1cc(Cc2n[nH]c(=O)c3ccccc23)ccc1F)N1CCN(C(=O)C2CC2)CC1 + CC1OCC2(CCN(c3cnc(Sc4ccnc(N)c4Cl)c(N)n3)CC2)C1N 73.5

---

Reported values of viability, T/C for individual entries
System: 931267-113-T-J1-PDC KRAS spheroid with HUVEC/MSC, viability
procedure.details: Anticancer human tumor 931267-113-T-J1-PDC cell line growth inhibition [KRAS2];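 further: compound exposure lasted 7 days before the readout; 100% = DMSO vehicle control viability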
recorded.conditions: second compound 1 µM; first compound 0.1 µM; hits give low values

{"columns": ["compound", "viability, T/C"],
 "data": [
  ["CCN1CCN(Cc2ccc(Nc3ncc(F)c(-c4cc(F)c5nc(C)n(C(C)C)c5c4)n3)nc2)CC1 + C=CC(=O)N1CCN(c2nc(=O)n(-c3c(C)ccnc3C(C)C)c3nc(-c4c(O)cccc4F)c(F)cc23)C(C)C1", "80.9%"],
  ["CC1OCC2(CCN(c3cnc(Sc4ccnc(N)c4Cl)c(N)n3)CC2)C1N (stereo not given) + CNCc1ccccc1-c1csc(C(C)Nc2nc(C)nc3cc(OC)c(OC)cc23)c1", "44.8%"],
  ["CC1COCCN1c1cc(-c2ccnn2C)c2ccnc(-c3ccn[nH]3)c2n1 (stereo not given) + C=CC(=O)N1CCN(c2nc(OCC3CCCN3C)nc3c2CCN(c2cccc4cccc(C)c24)C3)CC1CC#N", "12%"]
]}

// viability, T/C lookup, key: CCNC(=O)CC1N=C(c2ccc(Cl)cc2)c2cc(OC)ccc2-n2c(C)nnc21 (stereo not given) + C=CC(=O)N1CCN(c2nc(OCC3CCCN3C)nc3c2CCN(c2cccc4cccc(C)c24)C3)CC1CC#N 69.1%

Now this one: O=C(c1cc(Cc2n[nH]c(=O)c3ccccc23)ccc1F)N1CCN(C(=O)C2CC2)CC1 + CC1OCC2(CCN(c3cnc(Sc4ccnc(N)c4Cl)c(N)n3)CC2)C1N 89.5%

---

Test system: 931267-113-T-J1-PDC KRAS spheroid with HUVEC/MSC, viability
procedure.details: Anticancer human tumor 931267-113-T-J1-PDC cell line growth inhibition [KRAS2];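 further: compound exposure lasted 7 days before the readout; 100% = DMSO vehicle control viability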
recorded.conditions: second compound 1 µM; first compound 0.316 µM; hits give low values
Binary label based on viability, T/C with cut-off 80%: below gives Met, not below gives Not met.

{"columns": ["molecule", "target.or.test.system", "assigned.class"],
 "data": [
  ["O=C(c1cc(Cc2n[nH]c(=O)c3ccccc23)ccc1F)N1CCN(C(=O)C2CC2)CC1 + CC1OCC2(CCN(c3cnc(Sc4ccnc(N)c4Cl)c(N)n3)CC2)C1N", "931267-113-T-J1-PDC KRAS spheroid with HUVEC/MSC, viability", "Not met"],
  ["O=C(c1cc(Cc2n[nH]c(=O)c3ccccc23)ccc1F)N1CCN(C(=O)C2CC2)CC1 + C=CC(=O)N1CCN(c2nc(OCC3CCCN3C)nc3c2CCN(c2cccc4cccc(C)c24)C3)CC1CC#N", "931267-113-T-J1-PDC KRAS spheroid with HUVEC/MSC, viability", "Not met"]
]}

# TODO verify viability, T/C < 80% strictly for this molecule: CC(=O)OC12COC1CC(O)C1(C)C(=O)C(O)C3=C(C)C(OC(=O)C(O)C(NC(=O)OC(C)(C)C)c4ccccc4)CC(O)(C(OC(=O)c4ccccc4)C21)C3(C)C (stereo unspecified) + CC1OCC2(CCN(c3cnc(Sc4ccnc(N)c4Cl)c(N)n3)CC2)C1N Not met

Now this one: O=C(c1cc(Cc2n[nH]c(=O)c3ccccc23)ccc1F)N1CCN(C(=O)C2CC2)CC1 + COc1cc2nc(C)nc(NC(C)c3cc(N)cc(C(F)(F)F)c3)c2cc1OC1CCOC1 Not met

---

Tested on: 931267-113-T-J1-PDC KRAS spheroid with HUVEC/MSC, viability
procedure.details: Anticancer human tumor 931267-113-T-J1-PDC cell line growth inhibition [KRAS2];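 further: compound exposure lasted 7 days before the readout; 100% = DMSO vehicle control viability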
recorded.conditions: second compound 0.316 µM; first compound 1 µM; hits give low values
From the text: Multicellular complex tumor spheroid response to RAS pathway inhibitors in combination with a targeted agents in patient-derived cell lines with oncogenic KRAS variants from multiple cancer types A high-throughput screen of multi-cell type tumor spheroids was designed to identify active combinations of targeted small molecules and KRAS pathway inhibitors. […] Compounds. […] If the clinical Cmax for an agent had not been determined, the highest concentration tested was 10 microM. […]
readout.label: viability, T/C (%)
Could you give me the number in %? Just the number is fine.

Use these answered entries as a reference point.
{"columns": ["compound", "unit.abbreviation", "viability, T/C"],
 "data": [
  ["COc1cc2nccc(Oc3ccc(NC(=O)C4(C(=O)Nc5ccc(F)cc5)CC4)cc3)c2cc1OC + C=CC(=O)N1CCN(c2nc(=O)n(-c3c(C)ccnc3C(C)C)c3nc(-c4c(O)cccc4F)c(F)cc23)C(C)C1", "%", 96.3],
  ["COc1cc(Nc2ncc3c(n2)-c2ccc(Cl)cc2C(c2c(F)cccc2OC)=NC3)ccc1C(=O)O + C=CC(=O)N1CCN(c2nc(OCC3CCCN3C)nc3c2CCN(c2cccc4cccc(C)c24)C3)CC1CC#N", "%", 55.6],
  ["Cn1nccc1Nc1nccc(-c2cc3c(s2)C(C)(C)N(CCN2CCOCC2)C3=O)n1 + CNCc1ccccc1-c1csc(C(C)Nc2nc(C)nc3cc(OC)c(OC)cc23)c1", "%", 21.4],
  ["O=C(c1cc(Cc2n[nH]c(=O)c3ccccc23)ccc1F)N1CCN(C(=O)C2CC2)CC1 + CC1OCC2(CCN(c3cnc(Sc4ccnc(N)c4Cl)c(N)n3)CC2)C1N", "%", 66.9]
]}

API: the following record is the query input.
// viability, T/C lookup, key: CCN1CCN(Cc2ccc(Nc3ncc(F)c(-c4cc(F)c5nc(C)n(C(C)C)c5c4)n3)nc2)CC1 + C=CC(=O)N1CCN(c2nc(OCC3CCCN3C)nc3c2CCN(c2cccc4cccc(C)c24)C3)CC1CC#N 48.6
